Each record here notes measured koff.
# Experimental System: T1, hPDGFRb.mmh (human, UniProt P09619 33-531)
# T1 construct: Soluble monomeric construct; also called soluble human PDGFR-beta.mmh
# T1 sequence (P09619 other isoform, or with tags, fused parts or gaps): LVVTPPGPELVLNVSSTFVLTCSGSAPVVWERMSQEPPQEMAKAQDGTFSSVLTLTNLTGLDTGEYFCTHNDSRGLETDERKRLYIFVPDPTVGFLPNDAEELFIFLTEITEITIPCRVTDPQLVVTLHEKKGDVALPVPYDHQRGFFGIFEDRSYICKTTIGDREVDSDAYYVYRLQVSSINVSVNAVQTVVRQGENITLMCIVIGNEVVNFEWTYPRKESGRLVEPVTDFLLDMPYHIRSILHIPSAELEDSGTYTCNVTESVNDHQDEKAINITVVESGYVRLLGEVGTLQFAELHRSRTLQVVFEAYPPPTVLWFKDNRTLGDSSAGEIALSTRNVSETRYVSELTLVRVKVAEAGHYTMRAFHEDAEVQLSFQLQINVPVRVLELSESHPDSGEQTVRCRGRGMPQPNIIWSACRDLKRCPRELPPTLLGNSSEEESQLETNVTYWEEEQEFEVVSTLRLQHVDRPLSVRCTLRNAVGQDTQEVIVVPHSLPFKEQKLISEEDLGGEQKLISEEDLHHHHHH
# Test Method Notes: SPR, mAb captured, 37 C
Use s⁻¹ as the unit, but write only the number.

Past entries and their recorded results:
Binder: H1M3361N (antibody, mouse IgG1, V domains shown, mouse IgG1 Fc (H1M prefix)) VH: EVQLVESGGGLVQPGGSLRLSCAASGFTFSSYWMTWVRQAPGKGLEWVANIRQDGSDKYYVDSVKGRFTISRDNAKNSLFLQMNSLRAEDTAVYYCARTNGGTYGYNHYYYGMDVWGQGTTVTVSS VL: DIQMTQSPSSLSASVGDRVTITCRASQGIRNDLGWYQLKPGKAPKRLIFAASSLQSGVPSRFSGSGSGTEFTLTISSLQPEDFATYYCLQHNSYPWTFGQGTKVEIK
Unit Of Measure: s⁻¹
koff: 0.00833

Binder: H4H3102S (antibody, human IgG4, V domains shown, human IgG4 Fc (H4H prefix)) VH: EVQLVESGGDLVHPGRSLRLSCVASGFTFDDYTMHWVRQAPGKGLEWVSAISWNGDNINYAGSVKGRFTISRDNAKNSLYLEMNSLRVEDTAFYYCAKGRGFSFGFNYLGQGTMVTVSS VL: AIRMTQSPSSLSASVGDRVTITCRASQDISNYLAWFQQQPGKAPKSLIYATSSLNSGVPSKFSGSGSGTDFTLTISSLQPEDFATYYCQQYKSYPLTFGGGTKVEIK
Unit Of Measure: s⁻¹
koff: 0.00147

Binder: H2M3368N (antibody, V domains shown, mouse Fc (H2M prefix; isotype not spelled out)) VH: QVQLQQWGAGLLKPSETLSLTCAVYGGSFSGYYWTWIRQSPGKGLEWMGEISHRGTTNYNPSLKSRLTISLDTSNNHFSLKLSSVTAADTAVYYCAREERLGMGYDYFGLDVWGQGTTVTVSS VL: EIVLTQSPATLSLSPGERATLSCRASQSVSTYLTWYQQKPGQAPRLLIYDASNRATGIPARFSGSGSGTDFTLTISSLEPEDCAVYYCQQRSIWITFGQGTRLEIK
Unit Of Measure: s⁻¹
koff: 0.000844

Binder: H4H3106S (antibody, human IgG4, V domains shown, human IgG4 Fc (H4H prefix)) VH: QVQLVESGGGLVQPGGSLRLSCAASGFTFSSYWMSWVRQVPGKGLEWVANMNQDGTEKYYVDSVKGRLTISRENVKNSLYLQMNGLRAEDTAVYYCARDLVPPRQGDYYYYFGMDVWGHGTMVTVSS VL: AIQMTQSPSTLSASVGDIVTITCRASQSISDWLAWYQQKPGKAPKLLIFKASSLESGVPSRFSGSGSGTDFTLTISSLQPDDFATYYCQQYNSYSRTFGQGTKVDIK
Unit Of Measure: s⁻¹
koff: 0.00335

Now consider the entry below.
*Q* // query koff value for entry H4H3098S (antibody, human IgG4, V domains shown, human IgG4 Fc (H4H prefix)) VH: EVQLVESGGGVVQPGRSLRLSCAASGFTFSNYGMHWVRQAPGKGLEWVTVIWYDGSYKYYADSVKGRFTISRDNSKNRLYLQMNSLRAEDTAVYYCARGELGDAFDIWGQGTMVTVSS VL: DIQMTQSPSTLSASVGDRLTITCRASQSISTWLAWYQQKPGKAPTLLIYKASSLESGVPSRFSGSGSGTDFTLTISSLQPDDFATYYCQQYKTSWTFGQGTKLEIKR
*A* 0.00171

Data credit: patent US20170210813A1
